system: M19-MEL; test: NCI tumour cell line growth inhibition, 48 h
Activity calls are given as the source filed them. No stated cut-off is given here; in the data, active = GI50 up to about 1.1 µM and inactive = higher.
One label from this list, please: 1 (active), 0 (inactive)

Observe how each entry below is paired with its result.
[[record]]
compound = "O=C(O)c1nccnc1C(=O)O"
system_under_test = "M19-MEL"
assigned_category = 0

[[record]]
compound = "C=C[C@@]12CCCCC1C/C(=C(/O)OC)C(=O)C2 (stereo not given in full)"
system_under_test = "M19-MEL"
assigned_category = 0


Please share the test call associated with CC(C)=CCC/C(C)=C/CC/C(C)=C/Cc1c(O)c2ccccc2oc1=O .
0

Please share the test call associated with COC(=O)N/N=C(\C)CC(=O)Nc1cccc([N+](=O)[O-])c1 .
0

Please share the test call associated with OCn1nc2c(C3OCCO3)cc3ccccc3n2c1=S .
0

Please share the test call associated with [O-][S+]1c2ccccc2N=C(c2ccc3ccccc3c2)CC1c1ccccc1F (stereo not given) .
0

Please share the test call associated with O=C1CCN2C(=Nc3cccc4cccc2c34)N1 .
0

Please share the test call associated with O=C1C2C3SC(c4cc5ccccc5cc43)C2C(=O)N1c1ccccc1 (stereo not given) .
0

Please share the test call associated with O=C(N/N=C(/CCN1CCCC1)CC(c1ccccc1)c1c(O)c2ccccc2oc1=O)c1ccncc1 (stereo not given) .
0

Please share the test call associated with CC(=O)O[C@H]1CC[C@@]2(C)[C@H](CC[C@@H]3[C@@H]2CC[C@]2(C)[C@@H](c4ccc(=O)oc4)C[C@H]4O[C@]342)C1 .
1

Please share the test call associated with COC(=O)C(CC(=O)Nc1ccc(C)cc1)C(=O)C(=O)Nc1c(C(C)C)cccc1C(C)C (stereo not given) .
0

Please share the test call associated with Nc1ccc2c(c1)C1=NNC(=O)CC1C2 (stereo not given) .
0

---

system: KM12; experiment: NCI tumour cell line growth inhibition, 48 h
Calls of active or inactive are those of the source. No stated cut-off is given here; in the data, active = GI50 up to about 1.1 µM and inactive = higher.
GI50 values by entry

[[record]]
compound = "COC(=O)[C@H]1C2CC[C@@H]3C45C[C@@H](c6ccoc6)O[C@@H]4O[C@@H](O2)C31CCC5C (some centres not stated)"
result = "> 100 µM (inactive)"

[[record]]
compound = "CS(=O)(=O)c1nc(-c2cc3c(c(S(C)(=O)=O)n2)CCC3)cc2c1CCC2"
result = "> 100 µM (inactive)"

[[record]]
compound = "CN1CCc2c([nH]c3ccccc23)C1"
result = "> 100 µM (inactive)"

[[record]]
compound = "O=C1CCCCCCCCCCOC(=O)CCCCCCCCCCO1"
result = "> 100 µM (inactive)"


Retrieve GI50 measured for COCCN(C(=O)c1ccccc1)C1CCC(=O)c2[nH]c3ccccc3c21 (configuration not stated) and print it.
8.41 µM (inactive)

Retrieve GI50 measured for Cc1ccc(C(O)(c2ccc(C)cc2)c2ccccn2)cc1 and print it.
> 10 µM (inactive)

Retrieve GI50 measured for Nc1ccc2c(c1)C1=NNC(=O)CC1C2 (configuration not stated) and print it.
> 100 µM (inactive)

Retrieve GI50 measured for C[C@@H]1C(=O)O[C@H]1[C@H](O)CO and print it.
> 100 µM (inactive)

Retrieve GI50 measured for O=C1C2c3[nH]c4ccccc4c3C3CCSCC3C2C(=O)N1c1ccccc1 (configuration not stated) and print it.
> 100 µM (inactive)

Retrieve GI50 measured for N=c1oc2ccccc2cc1C(=O)Nc1ccccn1 and print it.
56.5 µM (inactive)

Retrieve GI50 measured for N/C(=N\c1ccc(Cl)cc1)NS(=O)(=O)c1ccc(S(=O)(=O)c2ccccc2)s1 and print it.
22.8 µM (inactive)

Retrieve GI50 measured for CC(C)c1cccc(C(C)C)c1NC1=CC(=O)C(=O)c2ccccc21 and print it.
> 100 µM (inactive)

---

test system: HCT-116; experiment: NCI tumour cell line growth inhibition, 48 h
Calls of active or inactive are those of the source. No stated cut-off is given here; in the data, active = GI50 up to about 1.1 µM and inactive = higher.
GI50 values by entry

Use these answered entries as a reference point.
[[record]]
molecule = "CC(C)(C)C1=CC(=C(c2ccc(-c3c4nc(c(-c5ccc(C(=C6C=C(C(C)(C)C)C(=O)C(C(C)(C)C)=C6)c6cc(C(C)(C)C)c(O)c(C(C)(C)C)c6)cc5)c5ccc([nH]5)c(-c5ccc(C(=C6C=C(C(C)(C)C)C(=O)C(C(C)(C)C)=C6)c6cc(C(C)(C)C)c(O)c(C(C)(C)C)c6)cc5)c5nc(c(-c6ccc(C(=C7C=C(C(C)(C)C)C(=O)C(C(C)(C)C)=C7)c7cc(C(C)(C)C)c(O)c(C(C)(C)C)c7)cc6)c6ccc3[nH]6)C=C5)C=C4)cc2)c2cc(C(C)(C)C)c(O)c(C(C)(C)C)c2)C=C(C(C)(C)C)C1=O"
parameter = "GI50"
result = "> 100 µM (inactive)"

[[record]]
molecule = "O=S(O)CCCSSSCCCS(=O)O"
parameter = "GI50"
result = "> 100 µM (inactive)"

[[record]]
molecule = "COc1cccc(-c2cc(O)c3ccccc3n2)c1"
parameter = "GI50"
result = "5.53 µM (inactive)"

[[record]]
molecule = "CCN(CC)CCN1c2ccccc2Sc2ccc3ccccc3c21"
parameter = "GI50"
result = "10.8 µM (inactive)"

[[record]]
molecule = "COc1ccc(NC(=S)c2ccc([N+](=O)[O-])o2)cc1"
parameter = "GI50"
result = "1.52 µM (inactive)"


Retrieve GI50 measured for CC(=O)CCn1ncc(Cl)c(Cl)c1=O and print it.
14.5 µM (inactive)

Retrieve GI50 measured for CNC(=O)c1cccc2c(Nc3ccc(NS(C)(=O)=O)cc3OC)c3cccc(C)c3nc12 and print it.
0.243 µM (active)

Retrieve GI50 measured for CN(C)c1cccc2c1C(=O)C=CC21CCc2ccc(N(C)C)c3c(N(C)C)ccc1c23 (stereo not drawn) and print it.
10.9 µM (inactive)

---

test system: MOLT-4; assay: NCI tumour cell line growth inhibition, 48 h
Activity calls are given as the source filed them. Cut-off read from the data, not from the text of the source: active = GI50 up to about 1.1 µM and inactive = higher.
One label from this list, please: active, inactive

Observe how each entry below is paired with its result.
[[record]]
compound = "CCCC(=O)Nc1cc(/C=C/C(=O)N2C[C@H]3C[C@@]34C2=CC(=O)c2[nH]cc(C)c24)n(C)c1"
assigned_category = "active"

[[record]]
compound = "C/C(COc1ccccc1)=N\\NC(N)=S"
assigned_category = "inactive"

[[record]]
compound = "CC(C(=O)n1ccnc1)N1c2ccccc2Sc2ccccc21 (configuration not stated)"
assigned_category = "inactive"


Please share the test call associated with NC(=S)NNC(=S)NC(=O)c1ccco1 .
inactive

Please share the test call associated with COc1cc([C@@H]2OCC3C(c4ccc5c(c4)OCO5)OCC32)cc(OC)c1OC (some centres not stated) .
inactive

Please share the test call associated with COC(=O)C(Cc1ccccc1)NC(=O)CCCNC(=O)OCc1ccccc1 (configuration not stated) .
inactive

---

system: OVCAR-8; experiment: NCI tumour cell line growth inhibition, 48 h
Calls of active or inactive are those of the source. Cut-off read from the data, not from the text of the source: active = GI50 up to about 1.1 µM and inactive = higher.
PARAMETER: GI50

Use these answered entries as a reference point.
[[record]]
compound = "c1coc(-c2nccc3c2[nH]c2ccccc23)c1"
system_under_test = "OVCAR-8"
parameter = "GI50"
result = "> 100 µM (inactive)"

[[record]]
compound = "Cn1c(=O)cc(N2CCCC2)[nH]c1=O"
system_under_test = "OVCAR-8"
parameter = "GI50"
result = "> 100 µM (inactive)"

[[record]]
compound = "CC1CCC2(CC1)N=C1CCC(C)CC1C1(CCC(C)CC1)N2 (stereo not drawn)"
system_under_test = "OVCAR-8"
parameter = "GI50"
result = "> 100 µM (inactive)"

[[record]]
compound = "O=c1c(Cc2c(O)ccc3ccccc23)nnc2sc(-c3nn4c(=O)c(Cc5c(O)ccc6ccccc56)nnc4s3)nn12"
system_under_test = "OVCAR-8"
parameter = "GI50"
result = "> 100 µM (inactive)"

[[record]]
compound = "CC(C)=CCC/C(C)=C/CC/C(C)=C/CSc1ccc(Cl)cc1C(=O)O"
system_under_test = "OVCAR-8"
parameter = "GI50"
result = "20 µM (inactive)"


Retrieve GI50 measured for O=C(/C=C/c1ccccc1)CCN1CCCCC1 and print it.
18.5 µM (inactive)

Retrieve GI50 measured for CC(=O)OC1C(CCl)OC(N=[N+]=[N-])C(OC(C)=O)C1OC(C)=O (stereo not drawn) and print it.
> 100 µM (inactive)

Retrieve GI50 measured for CCOC(O)C(F)(F)F (stereo not drawn) and print it.
> 100 µM (inactive)

Retrieve GI50 measured for CC1(C)OC2[C@@H](CO[C@@]3([C@@H](O)CCO)OC(C)(C)O[C@@H]23)O1 (stereo partly drawn) and print it.
> 100 µM (inactive)

Retrieve GI50 measured for C[N+]1(C)CN(c2ccccc2)C2(CCN(CCCC(=O)c3cccs3)CC2)C1=O and print it.
> 100 µM (inactive)

Retrieve GI50 measured for CCC(C)[C@H](NC(=O)N[C@H](C)c1ccccc1)C(=O)OC (stereo partly drawn) and print it.
> 100 µM (inactive)

Retrieve GI50 measured for O=C(O)c1ccccc1C(=O)Nc1cc2c(cc1Br)-c1ccccc1C2=O and print it.
> 100 µM (inactive)

Retrieve GI50 measured for COc1cc2c(cc1OC)C(=O)C1(C2)[C@H](c2ccccc2)C2C(=O)c3cc(OC)c(OC)cc3C2[C@H]1c1ccccc1 (stereo partly drawn) and print it.
> 100 µM (inactive)
